- assay_procedure: reducers of endogenous Her2 protein level, primary screen, SKBR3 breast tumor cells, AlphaScreen, ATP viability (AID 461);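 also: percent of carrier control wells set as 100% viability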
- assay_conditions: 18-24 h, measured here: SKBR3 viability, ATP luminescence, at 10 µM
readout_kind: viability (%)

INSERT INTO measurements (compound, readout_value) VALUES
  ('O=C(c1ccc(-c2cccc(C(F)(F)F)c2)o1)N1CCOCC1', 95.5),
  ('CC(=O)c1c(C)nn(CC(O)COc2ccc3c(c2)CCC3)c1C (stereo not given)', 93.5),
  ('C=CCN(C(=O)CNS(=O)(=O)c1ccccc1)C(C(=O)NCCOC)c1ccncc1 (stereo not given)', 100),
  ('CCNc1nc(NCC)n2c(SCc3nc4ccccc4c(=O)[nH]3)nnc2n1', 100),
  ('Cc1cc(C(F)F)n2nc(C(=O)Nc3ccc(S(=O)(=O)N4CCCCCC4)cc3)nc2n1', 74);
